molecular target: LK35.2-hPD-L1 cells / PE-labeled PD-1-Ig (Homo sapiens, UniProt Q9NZQ7); construct: expressed in transfected cells; host or cells: LK35.2 mouse B cell line; experiment: LK35.2-hPD-L1 cell binding high-content screening assay; format: cell-based; settings: cluster symbol; cell line of CBA not given (LK35.2-hPD-L1 or 293T-hPD-L1); read-out: CBA IC50 cluster
Sequence (Q9NZQ7 19-290): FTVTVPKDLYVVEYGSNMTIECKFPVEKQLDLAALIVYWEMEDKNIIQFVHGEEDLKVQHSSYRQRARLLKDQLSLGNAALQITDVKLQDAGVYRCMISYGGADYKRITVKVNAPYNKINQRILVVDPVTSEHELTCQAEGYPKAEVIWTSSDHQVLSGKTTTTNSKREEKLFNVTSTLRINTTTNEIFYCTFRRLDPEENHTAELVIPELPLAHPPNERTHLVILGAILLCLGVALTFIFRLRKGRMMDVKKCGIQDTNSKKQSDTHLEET
Positions of bridges follow the written chain, without caps; N, C: chain ends. Non-standard residues stand in square brackets, D forms with d. Residues, ends and D or L forms follow the SMILES beside them. ξ: configuration not given here. Bta = N[C@@H](Cc1csc2ccccc12)C(=O)O; Hyp = O=C(O)[C@@H]1C[C@@H](O)CN1; dNMeNle = CCCC[C@@H](NC)C(=O)O; NMeNle = CCCC[C@H](NC)C(=O)O; NMeA = CN[C@@H](C)C(=O)O; dDap = NC[C@@H](N)C(=O)O; Dab = NCC[C@H](N)C(=O)O; Dap = NC[C@H](N)C(=O)O; ξOrn = NCCCC(N)C(=O)O; ξP = O=C(O)C1CCCN1
The reader will find reported IC50 values listed item by item below.

>  <compound>
CCCC[C@H]1C(=O)N(C)[C@@H](CCCC)C(=O)N[C@@H](CCCNC(=N)N)C(=O)N[C@H](C(=O)NCC(N)=O)CSCC(=O)N[C@@H](Cc2ccc(O)cc2)C(=O)N(C)[C@@H](C)C(=O)N[C@@H](CCN)C(=O)N2CCC[C@H]2C(=O)N[C@@H](C)C(=O)N[C@@H](CCC(=O)O)C(=O)N2C[C@H](O)C[C@H]2C(=O)N[C@@H](Cc2c[nH]c3ccccc23)C(=O)N[C@@H](CO)C(=O)N[C@@H](Cc2c[nH]c3ccccc23)C(=O)N1C [Example 1155] ({CH2CO}-Y[NMeA][Dab]PAE[Hyp]WSW[NMeNle][NMeNle]RCG-NH2; thioether N-14)

>  <IC50>
4.78 to 72.9 nM

$$$$
>  <compound>
CCCC[C@@H]1C(=O)N(C)[C@H](CCCC)C(=O)N[C@@H](CN)C(=O)N[C@@H](C(=O)NCC(N)=O)CSCC(=O)N[C@@H](Cc2ccc(O)cc2)C(=O)N2CCCC2C(=O)N[C@H](CC(=O)O)C(=O)N2CCC[C@H]2C(=O)N[C@H](CN)C(=O)N[C@@H](CC(=O)O)C(=O)N2CCCC2C(=O)N[C@H](Cc2c[nH]c3ccccc23)C(=O)N[C@@H](CCN)C(=O)N[C@@H](Cc2c[nH]c3ccccc23)C(=O)N1C (stereo partly shown) [Example 1212] ({CH2CO}-Y[ξP][dD]P[dDap]D[ξP][dW][Dab]W[dNMeNle][dNMeNle][Dap][dC]G-NH2; thioether N-14)

>  <IC50>
> 74.3 nM

$$$$
>  <compound>
CCCC[C@H]1C(=O)N(C)[C@@H](CCCC)C(=O)NC(CCCN)C(=O)N[C@H](C(=O)NCC(N)=O)CSCC(=O)N[C@@H](Cc2ccc(O)cc2)C(=O)N(C)[C@@H](C)C(=O)N[C@@H](CC(N)=O)C(=O)N2CCCC2C(=O)N[C@@H](Cc2cnc[nH]2)C(=O)N[C@@H](CC(C)C)C(=O)N2CCC[C@H]2C(=O)N[C@@H](Cc2c[nH]c3ccccc23)C(=O)N[C@@H](CO)C(=O)N[C@@H](Cc2csc3ccccc23)C(=O)N1C (stereo partly shown) [Example 1042] ({CH2CO}-Y[NMeA]N[ξP]HLPWS[Bta][NMeNle][NMeNle][ξOrn]CG-NH2; thioether N-14)

>  <IC50>
0.158 to 4.71 nM

$$$$
>  <compound>
CCCC[C@H]1C(=O)N(C)[C@@H](CCCC)C(=O)N[C@@H](C)C(=O)N[C@H](C(=O)NCC(N)=O)CSCC(=O)N[C@@H](Cc2ccc(O)cc2)C(=O)N(C)[C@@H](C)C(=O)N[C@@H](CCC(=O)O)C(=O)N2CCC[C@H]2C(=O)N[C@@H](Cc2cnc[nH]2)C(=O)N[C@@H](CC(C)C)C(=O)N2CCC[C@H]2C(=O)N[C@@H](Cc2c[nH]c3ccccc23)C(=O)N[C@@H](CO)C(=O)N[C@@H](Cc2c[nH]c3ccccc23)C(=O)N1C [Example 1164] ({CH2CO}-Y[NMeA]EPHLPWSW[NMeNle][NMeNle]ACG-NH2; thioether N-14)

>  <IC50>
4.78 to 72.9 nM

$$$$

###

IC50 listing for selected molecules.
Target: Human PD-L1/PD-1 (Homo sapiens, UniProt Q9NZQ7)
Construct: made in house; host or cells: HEK293T
Sequence (Q9NZQ7 with tags, fused parts or gaps): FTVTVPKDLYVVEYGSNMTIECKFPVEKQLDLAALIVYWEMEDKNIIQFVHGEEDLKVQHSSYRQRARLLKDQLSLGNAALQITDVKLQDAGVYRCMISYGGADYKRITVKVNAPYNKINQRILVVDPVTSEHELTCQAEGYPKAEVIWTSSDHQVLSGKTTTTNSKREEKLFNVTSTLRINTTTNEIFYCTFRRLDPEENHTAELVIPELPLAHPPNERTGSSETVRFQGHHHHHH
Test: HTRF PD-1-Ig/PD-L1-His binding assay (human PD-L1)
Details: cluster symbol; read-out: HTRF IC50 cluster
From the text: The ability of the macrocyclic peptides of the present disclosure to bind to PD-L1 was investigated using a PD-1/PD-L1 Homogenous Time-Resolved Fluorescence (HTRF) binding assay. Homogenous Time-Resolved Fluorescence (HTRF) Assays of Binding of Soluble PD-1 to Soluble PD-L1. […]
Positions of bridges follow the written chain, without caps; N, C: chain ends. Non-standard residues stand in square brackets, D forms with d. Residues, ends and D or L forms follow the SMILES beside them. ξ: configuration not given here. Phe(3,4,5-F3) = N[C@@H](Cc1cc(F)c(F)c(F)c1)C(=O)O; Phe(4-CH2NH2) = NCc1ccc(C[C@H](N)C(=O)O)cc1; Phe(3-Cl) = N[C@@H](Cc1cccc(Cl)c1)C(=O)O; Bta = N[C@@H](Cc1csc2ccccc12)C(=O)O; Hyp = O=C(O)[C@@H]1C[C@@H](O)CN1; NMeF = CN[C@@H](Cc1ccccc1)C(=O)O; hPhe = N[C@@H](CCc1ccccc1)C(=O)O; NMeNle = CCCC[C@H](NC)C(=O)O; NMeA = CN[C@@H](C)C(=O)O; Orn = NCCC[C@H](N)C(=O)O; Dap = NC[C@H](N)C(=O)O; ξC = NC(CS)C(=O)O; Sar = CNCC(=O)O

>  <molecule>
CCCC[C@H]1C(=O)N[C@@H](CCCNC(=N)N)C(=O)N[C@H](C(=O)NCC(N)=O)CSCC(=O)N[C@@H](Cc2ccccc2)C(=O)N(C)[C@@H](C)C(=O)N[C@@H](CC(N)=O)C(=O)N2CCC[C@H]2C(=O)N[C@@H](Cc2cnc[nH]2)C(=O)N[C@@H](CC(C)C)C(=O)N(C)CC(=O)N[C@@H](Cc2c[nH]c3ccccc23)C(=O)N[C@@H](CO)C(=O)N[C@@H](Cc2c[nH]c3ccccc23)C(=O)N[C@@H](CCc2ccccc2)C(=O)N1C [Example 1006] ({CH2CO}-F[NMeA]NPHL[Sar]WSW[hPhe][NMeNle]RCG-NH2; thioether N-14)

>  <IC50>
> 30.5 nM

$$$$
>  <molecule>
CCCC[C@H]1C(=O)N(C)[C@@H](CCCC)C(=O)N[C@@H](C)C(=O)N[C@H](C(=O)NCC(N)=O)CSCC(=O)N[C@@H](Cc2ccc(O)cc2)C(=O)N(C)[C@@H](C)C(=O)N[C@@H](CC(N)=O)C(=O)N2CCC[C@H]2C(=O)N[C@@H](Cc2cnc[nH]2)C(=O)N[C@@H](CC(C)C)C(=O)N2CCC[C@H]2C(=O)N[C@@H](Cc2c[nH]c3ccccc23)C(=O)N[C@@H](CO)C(=O)N[C@@H](Cc2csc3ccccc23)C(=O)N1C [Example 1049] ({CH2CO}-Y[NMeA]NPHLPWS[Bta][NMeNle][NMeNle]ACG-NH2; thioether N-14)

>  <IC50>
6.76 to 30.3 nM

$$$$
>  <molecule>
CCCC[C@H]1C(=O)N(C)[C@@H](CCCC)C(=O)N[C@@H](CCCNC(=N)N)C(=O)N[C@H](C(=O)NCC(N)=O)CSCC(=O)N[C@@H](Cc2ccccc2)C(=O)N(C)[C@@H](C)C(=O)N[C@@H](CC(N)=O)C(=O)N2CCC[C@H]2C(=O)N[C@@H](Cc2cnc[nH]2)C(=O)N[C@@H](CC(C)C)C(=O)N2CCC[C@H]2C(=O)N[C@@H](Cc2c[nH]c3ccccc23)C(=O)N[C@@H](CO)C(=O)N[C@@H](Cc2csc3ccccc23)C(=O)N1C [Example 1015] ({CH2CO}-F[NMeA]NPHLPWS[Bta][NMeNle][NMeNle]RCG-NH2; thioether N-14)

>  <IC50>
6.76 to 30.3 nM

$$$$
>  <molecule>
CCCC[C@H]1C(=O)N(C)CC(=O)N[C@@H](CC(=O)O)C(=O)N[C@@H](C(C)C)C(=O)N(C)[C@@H](Cc2ccccc2)C(=O)N[C@@H](Cc2ccc(O)cc2)C(=O)N2CCC[C@@H]2C(=O)N[C@@H](Cc2c[nH]c3ccccc23)C(=O)N[C@@H](Cc2ccc(O)cc2)C(=O)N[C@@H](CC(C)C)C(=O)N[C@H](C(N)=O)CSCC(=O)N[C@@H](Cc2cccc(Cl)c2)C(=O)N(C)[C@@H](Cc2ccccc2)C(=O)N1C [Example 3166] ({CH2CO}-[Phe(3-Cl)][NMeF][NMeNle][Sar]DV[NMeF]Y[dP]WYLC-NH2; thioether N-13)

>  <IC50>
6.76 to 30.3 nM

$$$$
>  <molecule>
CCCC[C@H]1C(=O)N(C)[C@@H](CCCC)C(=O)N[C@@H](CCCNC(=N)N)C(=O)N[C@H](C(=O)NCC(N)=O)CSCC(=O)N[C@@H](Cc2ccc(O)cc2)C(=O)N(C)[C@@H](C)C(=O)N[C@@H](CC(N)=O)C(=O)N2CCC[C@H]2C(=O)N[C@@H](CN)C(=O)N[C@@H](CC(C)C)C(=O)N2C[C@H](O)C[C@H]2C(=O)N[C@@H](Cc2c[nH]c3ccccc23)C(=O)N[C@@H](CO)C(=O)N[C@@H](Cc2csc3ccccc23)C(=O)N1C [Example 1118] ({CH2CO}-Y[NMeA]NP[Dap]L[Hyp]WS[Bta][NMeNle][NMeNle]RCG-NH2; thioether N-14)

>  <IC50>
6.76 to 30.3 nM

$$$$
>  <molecule>
CCCC[C@H]1C(=O)N(C)CC(=O)N[C@@H](CC(=O)O)C(=O)N[C@@H](C(C)C)C(=O)N(C)[C@@H](Cc2ccccc2)C(=O)N[C@@H](Cc2ccc(CN)cc2)C(=O)N(C)CC(=O)N[C@@H](Cc2c[nH]c3ccccc23)C(=O)N[C@@H](Cc2ccc(O)cc2)C(=O)N[C@@H](CC(C)C)C(=O)N[C@H](C(=O)NCC(N)=O)CSCC(=O)N[C@@H](Cc2cccc(Cl)c2)C(=O)N(C)[C@@H](Cc2ccccc2)C(=O)N1C [Example 3122] ({CH2CO}-[Phe(3-Cl)][NMeF][NMeNle][Sar]DV[NMeF][Phe(4-CH2NH2)][Sar]WYLCG-NH2; thioether N-13)

>  <IC50>
6.76 to 30.3 nM

$$$$
>  <molecule>
CCCC[C@H]1C(=O)N(C)[C@@H](CCCC)C(=O)N[C@@H](CCCNC(=N)N)C(=O)NC(C(=O)NCC(N)=O)CSCC(=O)N[C@@H](Cc2ccc(O)cc2)C(=O)N(C)[C@@H](C)C(=O)N[C@@H](CC(N)=O)C(=O)N2CCC[C@H]2C(=O)N[C@@H](Cc2cnc[nH]2)C(=O)N[C@@H](CO)C(=O)N2C[C@H](O)C[C@H]2C(=O)N[C@@H](Cc2c[nH]c3ccccc23)C(=O)N[C@@H](CO)C(=O)N[C@@H](Cc2c[nH]c3ccccc23)C(=O)N1C (some centres unmarked) [Example 9069] ({CH2CO}-Y[NMeA]NPHS[Hyp]WSW[NMeNle][NMeNle]R[ξC]G-NH2; thioether N-14)

>  <IC50>
0.385 to 6.74 nM

$$$$
>  <molecule>
CCCC[C@H]1C(=O)N(C)CC(=O)N[C@@H](CC(N)=O)C(=O)N[C@@H](C(C)C)C(=O)N(C)[C@@H](Cc2ccccc2)C(=O)N[C@@H](Cc2ccc(O)cc2)C(=O)N(C)CC(=O)N[C@@H](Cc2c[nH]c3ccccc23)C(=O)N[C@@H](Cc2ccc(O)cc2)C(=O)N[C@@H](CCCN)C(=O)N[C@H](C(=O)NCC(N)=O)CSCC(=O)N[C@@H](Cc2cc(F)c(F)c(F)c2)C(=O)N(C)[C@@H](Cc2ccccc2)C(=O)N1C [Example 3181] ({CH2CO}-[Phe(3,4,5-F3)][NMeF][NMeNle][Sar]NV[NMeF]Y[Sar]WY[Orn]CG-NH2; thioether N-13)

>  <IC50>
0.385 to 6.74 nM

$$$$
